Assignment: determine reported MLD for the given compounds.
- Test system: Mus musculus
- TEST: Acute lethal toxicity (peroral administration), determined by observing the mortality for 7 days after the administration in mouse
- Type: organism-based
- SETUP CONDITIONS: in vivo, po, 168 h

// compound `CC(C)Cn1cnc2c3cccnc3n(-c3ccccc3)c(=O)c21` , assay Mus musculus, MLD value: 300 mg/kg

// compound `O=c1c2c(ncn2C/C=C/c2ccccc2)c2cccnc2n1-c1ccccc1` , assay Mus musculus, MLD value: > 300 mg/kg

// compound `O=c1c2c(ncn2CCc2ccccc2)c2cccnc2n1-c1ccccc1` , assay Mus musculus, MLD value: > 300 mg/kg

// compound C[C@]12C=CC(=O)C=C1CC[C@@H]1[C@@H]2[C@@H](O)C[C@@]2(C)[C@H]1CC[C@]2(O)C(=O)CO [PREDNISOLONE] , assay Mus musculus, MLD value: > 300 mg/kg

// compound `CCCCCCn1cnc2c3cccnc3n(-c3ccccc3)c(=O)c21` , assay Mus musculus, MLD value: > 300 mg/kg

// compound `O=c1c2c(ncn2CCCO)c2cccnc2n1-c1ccccc1` , assay Mus musculus, MLD value: > 300 mg/kg

// compound `O=c1c2ncn(Cc3ccccc3)c2c2cccnc2n1-c1ccccc1` , assay Mus musculus, MLD value: > 300 mg/kg

// compound CC(O)Cn1cnc2c3cccnc3n(-c3ccccc3)c(=O)c21 (configuration not stated) , assay Mus musculus, MLD value: 300 mg/kg

// compound `CCCn1cnc2c3cccnc3n(-c3ccccc3)c(=O)c21` , assay Mus musculus, MLD value: 200 mg/kg

// compound `CCn1cnc2c3cccnc3n(-c3ccccc3)c(=O)c21` , assay Mus musculus, MLD value: 100 mg/kg

// compound `CC(C)n1cnc2c3cccnc3n(-c3ccccc3)c(=O)c21` , assay Mus musculus, MLD value: 200 mg/kg

// compound `CC(=O)Cn1cnc2c3cccnc3n(-c3ccccc3)c(=O)c21` , assay Mus musculus, MLD value: > 200 mg/kg

// compound `CCOCCn1cnc2c3cccnc3n(-c3ccccc3)c(=O)c21` , assay Mus musculus, MLD value: > 300 mg/kg

// compound `CCCCn1cnc2c3cccnc3n(-c3ccccc3)c(=O)c21` , assay Mus musculus, MLD value: 300 mg/kg

// compound `O=c1c2c(ncn2Cc2ccccc2)c2cccnc2n1-c1ccccc1` , assay Mus musculus, MLD value: > 300 mg/kg

// compound CC(c1ccccc1)n1cnc2c3cccnc3n(-c3ccccc3)c(=O)c21 (configuration not stated) , assay Mus musculus, MLD value: > 300 mg/kg

// compound `O=c1c2c(ncn2CC2CCCCC2)c2cccnc2n1-c1ccccc1` , assay Mus musculus, MLD value: > 300 mg/kg

// compound `Oc1c2ncnc-2c2cccnc2n1-c1ccccc1` , assay Mus musculus, MLD value: > 300 mg/kg

// compound `COc1ccc(Cn2cnc3c4cccnc4n(-c4ccccc4)c(=O)c32)cc1` , assay Mus musculus, MLD value: > 300 mg/kg

// compound NC(=O)N1C(=O)/C(=C(\O)c2cccs2)c2cc(Cl)ccc21 [TENIDAP] , assay Mus musculus, MLD value: > 300 mg/kg

// compound `CC(=O)OCCn1cnc2c3cccnc3n(-c3ccccc3)c(=O)c21` , assay Mus musculus, MLD value: > 300 mg/kg

// compound `CCn1cnc2c(=O)n(-c3ccccc3)c3ncccc3c21` , assay Mus musculus, MLD value: > 300 mg/kg

The measured values listed here are drawn from ChEMBL document CHEMBL1126191.
